Organism: Rattus norvegicus
Test: Open TG-GATES - Regimen: Daily Repeat
Type: toxicity, organism-based, Sprague-Dawley
Parameters: regimen Daily Repeat, gender Male, age 6 weeks
Details: in vivo, po, 1000 mg/kg, […], tissue Blood, route gavage, dose level High, time 28 day
quantity.measured: PT (s)
Expressed in s, but write only the number.

# query.smiles, quantity.measured, measured.number
data = [
    ("COC(=O)C1=C(C)NC(C)=C(C(=O)OC)C1c1ccccc1[N+](=O)[O-]", "PT", 14.1),
    ("CNC(=C[N+](=O)[O-])NCCSCc1ccc(CN(C)C)o1", "PT", 12.2),
    ("Cc1nnc2n1-c1ccc(Cl)cc1C(c1ccccc1Cl)=NC2", "PT", 13.2),
    ("O=C(OC[C@H]1O[C@@H](OC(=O)c2cc(O)c(O)c(OC(=O)c3cc(O)c(O)c(O)c3)c2)[C@H](OC(=O)c2cc(O)c(O)c(OC(=O)c3cc(O)c(O)c(O)c3)c2)[C@@H](OC(=O)c2cc(O)c(O)c(OC(=O)c3cc(O)c(O)c(O)c3)c2)[C@@H]1OC(=O)c1cc(O)c(O)c(OC(=O)c2cc(O)c(O)c(O)c2)c1)c1cc(O)c(O)c(OC(=O)c2cc(O)c(O)c(O)c2)c1", "PT", 11.6),
]

Let's switch to this compound now.
Input line: # get_value(readout='PT', item= `CN/C(=N/CCSCc1nc[nH]c1C)NC#N` )
Output line: 13.2

###

Species on record: Rattus norvegicus
Assay: Open TG-GATES - Regimen: Daily Repeat
Assay type: toxicity, organism-based, Sprague-Dawley
Design: regimen Daily Repeat, gender Male, age 6 weeks
Conditions: in vivo, po, 0 mg/kg, […], tissue Blood, route gavage, dose level Control, time 7 day
quantity.measured: APTT (s)
Note: unit s is implicit; provide only the numeric part.

Use these answered entries as a reference point.
# compound, APTT / s
rows = [
    ("Cc1nnc2n1-c1ccc(Cl)cc1C(c1ccccc1Cl)=NC2", 21.5),
    ("Brc1ccccc1", 15.7),
    ("CNC(=C[N+](=O)[O-])NCCSCc1ccc(CN(C)C)o1", 19.3),
]

Input line: Suppose we examine the compound `CCOc1ccc(NC(C)=O)cc1` ; what APTT value has been reported?
Output line: 17.7

Input line: What measured APTT goes with `CC(C)NNC(=O)c1ccncc1` ?
Output line: 22.5

Input line: What measured APTT goes with `O=C(OC[C@H]1O[C@@H](OC(=O)c2cc(O)c(O)c(OC(=O)c3cc(O)c(O)c(O)c3)c2)[C@H](OC(=O)c2cc(O)c(O)c(OC(=O)c3cc(O)c(O)c(O)c3)c2)[C@@H](OC(=O)c2cc(O)c(O)c(OC(=O)c3cc(O)c(O)c(O)c3)c2)[C@@H]1OC(=O)c1cc(O)c(O)c(OC(=O)c2cc(O)c(O)c(O)c2)c1)c1cc(O)c(O)c(OC(=O)c2cc(O)c(O)c(O)c2)c1` ?
Output line: 16.7

Input line: What APTT value was documented for this compound, `CCCc1cc(=O)[nH]c(=S)[nH]1` ?
Output line: 16

Input line: Value lookup for APTT; key = `COC(=O)C1=C(C)NC(C)=C(C(=O)OC)C1c1ccccc1[N+](=O)[O-]`
Output line: 16.1

Input line: APTT for CN(C)CCC(c1ccc(Cl)cc1)c1ccccn1 (stereo not drawn) ?
Output line: 18.7

Input line: What value of APTT has been reported for the following compound? `Nc1c2c(nc3ccccc13)CCCC2`
Output line: 21.6

Input line: Endpoint output: APTT of CN1C(=O)CCS(=O)(=O)C1c1ccc(Cl)cc1 (stereo not drawn) . Value?
Output line: 17.6

Input line: I have this compound here, `CN/C(=N/CCSCc1nc[nH]c1C)NC#N` , and I need its recorded APTT.
Output line: 18.7

Input line: Look up APTT: NC1=NC(=O)C(c2ccccc2)O1 (stereo not drawn)
Output line: 17.2
